Values were extracted from ChEMBL document CHEMBL5131432.

Test system: Enterococcus faecalis
Test: Antibacterial activity against Enterococcus faecalis DSM-20478 assessed as bacterial growth inhibition
Type: functional
property_name: MIC

> print(dat)
                          structure.notation           study.system  property.name       result
 1  CCCCNc1nc(SCCCC)nc2ccc(-c3cccc(O)c3)cc12  Enterococcus faecalis            MIC      2 µg/mL
 2            CCCCNc1nc(SCCCC)nc2ccc(Br)cc12  Enterococcus faecalis            MIC  > 128 µg/mL
 3           CCCCNc1nc(SCCCC)nc2nn(CCCC)cc12  Enterococcus faecalis            MIC  > 128 µg/mL
 4                 CCCCNc1nc(SC)nc2n[nH]cc12  Enterococcus faecalis            MIC  > 128 µg/mL
 5   CCCCNc1nc(SCCCC)nc2ccc(-c3cn[nH]c3)cc12  Enterococcus faecalis            MIC  > 128 µg/mL
 6  CCCCNc1nc(SCCCC)nc2ccc(-c3ccc(C(=O)O)cc3)cc12  Enterococcus faecalis            MIC  > 128 µg/mL
 7            CCCCNc1nc(SCCCC)nc2cc(Br)ccc12  Enterococcus faecalis            MIC  > 128 µg/mL
 8             CCCCNc1nc(SCCCC)nc2ccc(F)cc12  Enterococcus faecalis            MIC  > 128 µg/mL
 9     CCCCNc1nc(SCCCC)nc2ccc(-c3ccncc3)cc12  Enterococcus faecalis            MIC  > 128 µg/mL
10             CCCCSc1nc(SCCCC)c2cc(N)ccc2n1  Enterococcus faecalis            MIC     32 µg/mL
11             CCCCNc1nc(SCCCC)nc2cc(F)ccc12  Enterococcus faecalis            MIC  > 128 µg/mL
12  CCCCNc1nc(SCCCC)nc2ccc(-c3cccc(C(=O)O)c3)cc12  Enterococcus faecalis            MIC      8 µg/mL

====

System: Staphylococcus aureus
Experiment: Antibacterial activity against methicillin-resistant Staphylococcus aureus N315 assessed as bacterial growth inhibition
Format: functional
property_name: MIC

> print(dat)
                          structure.notation       result
 1            CCCCNc1nc(SCCCC)nc2cc(Cl)ccc12  > 128 µg/mL
 2     CCCCNc1nc(SCCCC)nc2ccc(-c3cccnc3)cc12  > 128 µg/mL
 3  CCCCNc1nc(SCCCC)nc2ccc(-c3cccc(C#N)c3)cc12  > 128 µg/mL
 4             CCCCNc1nc(SCCCC)nc2cc(F)ccc12  > 128 µg/mL
 5     CCCCNc1nc(SCCCC)nc2ccc(NC(=O)NCC)cc12  > 128 µg/mL
 6             CCCCNc1nc(SCCCC)nc2ccc(F)cc12  > 128 µg/mL
 7            CCCCNc1nc(SCCCC)nc2ccc(Br)cc12  > 128 µg/mL
 8  CCCCNc1nc(SCCCC)nc2ccc(-c3cccc(O)c3)cc12  > 128 µg/mL
 9              CCCCNc1nc(SCCCC)nc2n[nH]cc12  > 128 µg/mL
10            CCCCNc1nc(SCCCC)nc2cc(Br)ccc12  > 128 µg/mL
11            CCCCNc1nc(SCCCC)nc2ccc(Cl)cc12  > 128 µg/mL
12  CCCCNc1nc(SCCCC)nc2ccc(-c3cccc(CO)c3)cc12  > 128 µg/mL
13  CCCCSc1nc(SCCCC)c2cc(NS(=O)(=O)CC)ccc2n1  > 128 µg/mL

====

System: Staphylococcus aureus
Assay: Antibacterial activity against methicillin-sensitive Staphylococcus aureus Newman assessed as bacterial growth inhibition
Format: functional
MIC by entry:
property_name: MIC

> print(dat)
                         structure.notation           study.system       result
1   CCCCNc1nc(SCCCC)nc2ccc(-c3cn[nH]c3)cc12  Staphylococcus aureus  > 128 µg/mL
2            CCCCNc1nc(SCCCC)nc2ccc(Br)cc12  Staphylococcus aureus  > 128 µg/mL
3                 CCCCNc1nc(SCCCC)nc2sccc12  Staphylococcus aureus      8 µg/mL
4  CCCCNc1nc(SCCCC)nc2ccc(-c3cccc(C(=O)O)c3)cc12  Staphylococcus aureus      8 µg/mL
